So I've got pIC50 readings for HCMV No protease (Human cytomegalovirus, UniProt P16753), take a look.
Where a name gives a salt, the structure may show the parent alone.
Convention used: pIC50 is expressed as -log10 of the molar concentration.

Tested on HCMV No protease (Human cytomegalovirus, UniProt P16753), the item C[C@@H](NC(=O)N1C(=O)C[C@H]1[S+]([O-])c1ccccc1)c1ccccc1 (stereo partly shown) showed pIC50 equal to 5.05

Tested on HCMV No protease (Human cytomegalovirus, UniProt P16753), the item CC[C@@H](NC(=O)N1C(=O)C[C@@H]1SCc1ccccn1)c1ccccc1 [Entry 114, hydrochloride] showed pIC50 equal to 5.92

Tested on HCMV No protease (Human cytomegalovirus, UniProt P16753), the item `C[C@@H](NC(=O)N1C(=O)C[C@@H]1SCC(=O)c1ccccc1)c1ccccc1` showed pIC50 equal to 6.00

Tested on HCMV No protease (Human cytomegalovirus, UniProt P16753), the item `CC(C)C[C@@H](CO[C@@H]1CC(=O)N1C(=O)NCc1ccccc1)NC(=O)[C@@H](NC(=O)OC(C)(C)C)C(C)(C)C` showed pIC50 equal to 5.89

----------
Parameter pEC50: see the listing below.
- Tested on: HCMV (strain AD169, ATCC VR-538)
- assayProtocol: Plaque Reduction Assay (PRA), HCMV-infected Hs-68 cells
- Format: cell-based, human cytomegalovirus (HCMV)
- conditionInfo: Human betaherpesvirus 5, Hs68; plaque reduction, Hs-68 cells, HCMV strain AD169; Table 1 and Table 2; read-out: EC50
- Method: B. Plaque Reduction Assay (PRA): Hs-68 cells (ATCC # CRL 1635) were seeded in 12-well plates at 83,000 cells/well in 1 mL of DMEM medium (Gibco Canada Inc.) supplemented with 10% fetal bovine serum (FBS, Gibco Canada Inc.). The plates were incubated for 3 days at 37° to allow the cells to reach 80-90% confluency prior to the assay. The medium was removed from the cells by aspiration. […] Microscopic plaques were counted using a stereomicroscope. […]
pEC50: −log10 of the molar value.

{"columns": ["compound", "pEC50"],
 "data": [
  ["CC(C)C[C@@H](CO[C@H]1CC(=O)N1C(=O)N[C@H](C)c1ccccc1)NC(=O)[C@@H](NC(=O)OC(C)(C)C)C(C)(C)C", "< 4.31"],
  ["CN(C(=O)CC(CO[C@@H]1CC(=O)N1C(=O)NCc1ccccc1)NC(=O)CC(C)(C)C)C(C)(C)C (some centres unmarked)", "< 3.60"]
]}

Tested on HCMV (strain AD169, ATCC VR-538), the item `C[C@@H](NC(=O)N1C(=O)C[C@@H]1SCCc1ccccc1)c1ccccc1` showed pEC50 equal to < 5.40

Tested on HCMV (strain AD169, ATCC VR-538), the item `C[C@@H](NC(=O)N1C(=O)C[C@@H]1SCc1ccccc1)c1ccccc1` showed pEC50 equal to < 5.30

Tested on HCMV (strain AD169, ATCC VR-538), the item `C[C@@H](NC(=O)N1C(=O)C[C@@H]1SCC(=O)c1ccccc1)c1ccccc1` showed pEC50 equal to < 4.43

Values were extracted from patent US6239125A.
